Origin of the recorded values: patent US20250000864A1

method-notes: Metabolic stability in rat liver microsomes
Assay type: in vitro ADME, SD rat
condition-set: SD; Rat liver microsomes; read-out: CLint(mic)
metric-name: microsomal CLint (µL/min/mg)
Answers are plain numbers, in µL/min/mg.

Challenge: I am curious: what microsomal CLint value has been reported for `CCNC(=O)Nc1ccc(-c2sc3c(c2CN(C)C)c(=O)n(-c2ccc(OC)nn2)c(=O)n3Cc2c(F)cccc2F)cn1` ?
Response given: 15.8

====

method-notes: Caco-2 two-way permeability and efflux
Format: in vitro ADME
condition-set: human, Caco-2
metric-name: efflux ratio at 120 min

Challenge: I am curious: what efflux ratio at 120 min value has been reported for `CCNC(=O)Nc1ccc(-c2sc3c(c2CN(C)C)c(=O)n(-c2ccc(OC)nn2)c(=O)n3Cc2c(F)cccc2F)cn1` ?
Response given: ~6
